experimental system: hGLP-1R (Homo sapiens, UniProt P43220)
Sequence (P43220 24-463): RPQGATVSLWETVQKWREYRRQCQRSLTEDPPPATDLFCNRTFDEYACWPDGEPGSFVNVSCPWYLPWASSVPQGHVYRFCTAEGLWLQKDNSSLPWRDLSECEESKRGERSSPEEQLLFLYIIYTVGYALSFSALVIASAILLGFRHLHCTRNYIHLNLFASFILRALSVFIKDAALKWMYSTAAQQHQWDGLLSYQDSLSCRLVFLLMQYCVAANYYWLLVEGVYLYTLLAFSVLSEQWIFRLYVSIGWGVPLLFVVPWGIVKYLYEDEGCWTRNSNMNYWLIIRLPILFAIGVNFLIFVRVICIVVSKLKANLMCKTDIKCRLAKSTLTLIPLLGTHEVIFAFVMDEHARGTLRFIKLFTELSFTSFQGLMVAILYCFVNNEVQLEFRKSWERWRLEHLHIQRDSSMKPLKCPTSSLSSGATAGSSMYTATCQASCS
experiment notes: cell-based or functional assay
Starred links: 1 amine or outer side, 2 acyl side, 3 side chain; linkers in the order of their positions; H or OH if unused. Non-standard residues stand in square brackets, D forms with d. Groups on a side chain read outwards from the residue. No end group written: not given here. *: point of attachment. C20 diacid = O=C(O)CCCCCCCCCCCCCCCCCCC(=O)*; αMePhe(2-F) = C[C@](N)(Cc1ccccc1F)C(=O)O; γGlu = O=C(O)[C@H](CCC(=O)[*:2])N[*:1]; AEEA = NCCOCCOCC(=O)O; Aib = CC(C)(N)C(=O)O
For each of the binders below, state its Relative cAMP EC50.
Answers are plain numbers, in nM.

**Query** Could you tell me which Relative cAMP EC50 is on file for Y[Aib]QGT[αMePhe(2-F)]TSDYSKLLDKIAQKAFIEYLIEGGPSSGAPPPSGE-NH2 (not fully specified (residue 20)) [Example 356] ?
**Result** 0.599

**Query** And Y[Aib]QGT[αMePhe(2-F)]TSDYSKLLDKIAQK([AEEA-γGlu-C20 diacid])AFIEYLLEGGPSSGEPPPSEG-NH2 [Example 295] ?
**Result** 0.831

**Query** And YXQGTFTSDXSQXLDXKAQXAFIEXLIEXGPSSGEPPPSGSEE (not fully specified; Aib, 4Pal, Orn, Me4Pal, αMeY; lipidated Lys; C-terminal amide; synthetic construct; SITE 2: note = 2-Aminoisobutyric Acid; SITE 10: note = 3-(4-Pyridyl)-L-alanine; SITE 13: note = alpha-methyl-leucine; SITE 16: note = L-ornithine; SITE 17: note = Lysine is chemically modified through conjugation of the epsilon-amino group of the Lysine side chain with D-Glutami) [Example 1103] ?
**Result** 1.06

For each of the binders below, state Relative cAMP EC50.
1. YXQGTXTSDXSILLDKKAQXAFIEYLEEGGPSSGAPPPSGGGE (non-natural residues; Lys acylated C18 diacid; C-terminal amide; synthetic construct; SITE 2: note = 2-Aminoisobutyric Acid; SITE 6: note = alpha-methyl-2-fluoro-L-phenylalanine; SITE 10: note = 3-(4-Pyridyl)-L-alanine; SITE 17: note = Lysine is chemically modified through conjugation of the epsilon-amino group of the Lysine side chain with (gamma-Glu)2-CO-(CH2)1) [Example 619]
2. YXQGTXTSDXSILLDKKAQXAFIEXLEEGGPSSGAPPPSGGGE (synthetic construct; SITE 2: note = 2-Aminoisobutyric Acid; SITE 6: note = alpha-methyl-2-fluoro-L-phenylalanine; SITE 10: note = 3-(4-Pyridyl)-L-alanine; SITE 17: note = Lysine is chemically modified through conjugation of the epsilon-amino group of the Lysine side chain with (gamma-Glu)2-CO-(CH2)1) [Example 668 (SEQ ID NO: 674)]

**Result**
0.992
0.325
